- System: NCI-H322M lung
- assay explanation: NCI-60 one-dose screen, 48 h (100 = growth as untreated, 0 = no growth, -100 = all killed)
- experimental parameters: 10 µM unless noted
About 83,000 compounds went through this panel and 20% of them were active in at least one assay; those are over-represented in the sample as a whole.
Parameter: growth. Scope: all listed entries.

compound	growth, %
OB(O)c1ccsc1-c1nc2ccc3[nH]ncc3c2c2c1CCCC2	49.9
CCCO/N=C/c1ccccn1	112
CCCCCO/N=C\c1c2c(O)c3c(O)c(C)c4c(c3c1O)C(=O)C(C)(O/C=C\C(OC)C(C)C(OC(C)=O)C(C)C(O)C(C)C(O)C(C)/C=C\C=C(\C)C(=O)N2)O4 (stereo not given)	53.2
Fc1ccccc1-c1cnn2cc(-c3ccccc3)cnc12	95.5
O=C1/C(=C/c2ccc(-c3cccc(C(F)(F)F)c3)o2)SC(=S)N1CCc1ccc(O)cc1	90.3
N#C/C(=N\Nc1ccc(Cl)cc1)C(=O)Nc1cc(-c2ccccc2)nn1-c1ccccc1	11.9
Cc1ccc(C(=O)Nc2ccc(CN3CCN(C)CC3)c(C(F)(F)F)c2)cc1C#Cc1cnc(N)cc1C#N	12.4
c1ccc(Cc2cccc[n+]2C(c2ccccc2)c2ccccc2)cc1	77.9
N#Cc1c(-c2cccc(F)c2)cc(-c2cccnc2)[nH]c1=O	101
O=C(Nc1ccc2ccccc2c1)c1cc2ccccc2cc1O	75.7

----------
# Lookup of reported growth keyed by entry
- System: HCT-15 colon
- assay explanation: NCI-60 one-dose screen, 48 h (100 = growth as untreated, 0 = no growth, -100 = all killed)
- experimental parameters: 10 µM unless noted
The panel holds about 83,000 compounds, 20% with a hit somewhere; the sample as a whole holds those more often.

compound	unit label	growth
COC(=O)c1nc(-c2ccc(C)cc2)oc1S(=O)(=O)c1ccc(Cl)cc1	%	73.5
CC(C)(C)c1cc(C(C)(C)c2ccccc2)cc(Cc2cc(C(C)(C)c3ccccc3)cc(C(C)(C)C)c2O)c1O	%	95.8
CC[C@]1(O)CC2CN(CCc3c([nH]c4ccccc34)C(C(=O)OC)(c3cc4c(cc3OC)N(C=O)[C@H]3[C@@](O)(C(=O)OC)[C@H](OC(C)=O)[C@]5(CC)[C@@H]6C[C@@H]6CN6CC[C@]43[C@@H]65)C2)C1 (some centres undefined)	%	15.5
C=C(CN1CC=CCC1)[C@@H]1CC[C@]2(COC(C)=O)CC[C@]3(C)[C@H](CC[C@@H]4[C@@]5(C)CC[C@H](O)C(C)(C)[C@@H]5CC[C@]43C)[C@@H]12	%	101
N#Cc1ccccc1OCC(=O)Nc1nc2c(s1)COc1ccccc1-2	%	103
Clc1nccc2c(-c3csc(-c4c[nH]c5ccc(Br)cc45)n3)c[nH]c12	%	-49.4
COc1ccc(/C=C/C(=O)c2cc3c(N)c(C(=O)Nc4ccccc4)sc3nc2C)cc1	%	5.97
COc1ccc(-c2nn3c(-c4cc(F)c(Cl)cc4Cl)nnc3s2)cc1	%	42
O=[N+]([O-])c1cc(C(F)(F)F)ccc1Sc1ccc(C(F)(F)F)cc1[N+](=O)[O-]	%	71.2
O=C(Oc1ccc(CO[N+](=O)[O-])cc1)c1ccccc1	%	-83
OCc1cc(CN2CCCCC2)c(O)c2ncccc12	%	20
CC/C(=C(/c1ccc(O)cc1)c1ccc(OCCN2CCCCCC2)cc1)c1ccc(Cl)cc1	%	31.5
Nc1ccc(-c2nc3ccc4[nH]ncc4c3c3c2CCCC3)cc1F	%	15.5
COc1c(F)cc(-n2c(C(=O)N3CC(F)C3)cc3cccnc32)cc1F	%	98.6
N=c1c2c(-c3ccccc3)c(-c3ccccc3)oc2ncn1NC(=O)c1cccnc1	%	95.6
NCCOCCOc1ccccc1	%	104
O=c1c(/C=C/c2ccco2)nnc2sc(Nc3ccc(Cl)cc3)nn12	%	108
CCN(CC)CCCN1C(=O)c2c(c(C)c3c(oc4cc(OC)ccc43)c2C)C1=O	%	80.6
COC(=O)c1c2c(c(C)[n+]([O-])c1C)C(=O)C(NCCN1CCOCC1)=CC2=O	%	69.1

----------
- Tested on: M14 melanoma
- assay explanation: NCI-60 one-dose screen, 48 h (100 = growth as untreated, 0 = no growth, -100 = all killed)
- experimental parameters: 10 µM unless noted
The panel holds about 83,000 compounds, 20% with a hit somewhere; the sample as a whole holds those more often.
List of growth values.
assay readout: growth (%)

> print(dat)
                                    molecule  meas.value
 1    O=C(Oc1ccc(CO[N+](=O)[O-])cc1)c1ccccc1         -83
 2  O=C(CCCCCCCCC(=O)N/N=C\c1ccccc1O)N/N=C\c1ccccc1O          -9
 3                COc1cc(CO)cc2cc3ccccc3nc12         105
 4  COc1ccc(Nc2ncnc3ccc(-c4cncc(NS(C)(=O)=O)c4)cc23)cc1Cl        51.5
 5  Clc1ccc(CNc2ccc3nc(CCC4CCCCC4)[nH]c3c2)cc1          45
 6  COc1ccc2nc3cc(Cl)ccc3c(NCCCNCCC(C)O)c2c1 (stereo not given)         -82
 7  CN(Cc1ccccc1)c1nc(Cl)c(C2CC(c3ccc4c(c3)OCO4)=NN2c2cc(Cl)cc(Cl)c2)s1 (stereo not given)        99.5
 8  O=C(Nc1ccc2ncsc2c1)c1csc(Nc2ccc3[nH]ncc3c2)n1        25.2
 9  Cc1cnc(C(=O)NNc2nc3sc4c(c3c(=O)[nH]2)C(C)CCC4)cn1 (stereo not given)        0.29
10  CCOC(=O)CCCn1c(-c2ccccc2)cc(-c2ccccc2)c(C#N)c1=O        86.8
11  COc1ccc(S(=O)(=O)Nc2cc(Sc3cccc4cccnc34)c(O)c3ccccc23)cc1       -13.4
12  O=C(NCc1ccc(Cn2c(=O)sn(-c3ccc(Cl)cc3)c2=O)cc1)OCc1ccc2c(Cl)cc(Cl)c(O)c2n1        50.5
13    Cc1ccc(Cc2cnc(NC(=O)c3cc(C)oc3C)s2)cc1        70.8
14  COc1cc(-c2nc3occn3c2-c2ccnc(NCCCNS(=O)(=O)c3ccc(O)cc3)n2)ccc1F        26.2
15  O=C1/C(=C/c2ccccc2)CN(C(=O)C(Cl)Cl)C/C1=C\c1ccccc1       -27.6
16  CC(=O)c1nn(-c2ccccc2)/c(=N/N=Cc2cn(-c3ccccc3)nc2-c2cc3ccccc3oc2=O)s1        97.4
17  COc1ccc(Cn2cc(C(=O)Nc3cccnc3Nc3ccccc3)nn2)cc1         106
18  CN1C(=O)/C(=C/c2ccc(C(=O)Nc3ncc(Cc4ccccc4Cl)s3)cc2)SC1=S        42.1
19       O=C(Nc1ccc2ccccc2c1)c1cc2ccccc2cc1O          99
20  COc1cc(/C=C/C(=O)c2ccc(NC(=O)CSc3nnc(-c4cc(-c5ccccc5)nc5ccccc45)n3-c3ccccc3)cc2)cc(OC)c1OC        94.5

----------
- System: OVCAR-4 ovarian
- assay explanation: NCI-60 one-dose screen, 48 h (100 = growth as untreated, 0 = no growth, -100 = all killed)
- experimental parameters: 10 µM unless noted
About 83,000 compounds went through this panel and 20% of them were active in at least one assay; those are over-represented in the sample as a whole. Active and inactive are the calls of the source. Rule for the calls: active = growth percent below 10; inactive = the rest.
assay readout: growth

> print(dat)
                                    compound  assay.readout        meas.value
 1   O=C1C(Nc2ccc(Cl)cc2)=C(I)C(=O)c2ncccc21         growth   -91.4% (active)
 2  COc1ccc2c(c1)c(C(=O)c1nc(-c3cn(C)c4ccccc34)no1)cn2C         growth  95.8% (inactive)
 3  COc1cc(CNC(=O)CCCC/C=C/C(C)C)ccc1OCc1cn(-c2ccc([N+](=O)[O-])cc2)nn1         growth  87.2% (inactive)
 4  Clc1ccc2c(c1)N(c1ncnc3ccc(-c4cnc5[nH]ccc5c4)cc13)CC2         growth   0.279% (active)
 5          O=C(/C=C/c1ccc(Cl)s1)c1ccc(Cl)s1         growth  84.5% (inactive)
 6  COc1ccc(C2=C(CN)C(O)NC(=NCC(=O)c3ccc4ccccc4c3)N2)cc1 (centres undefined)         growth   107% (inactive)
 7  COc1c(O)c(O)cc2c3c(oc12)CC(c1ccc2c(c1)OCO2)CC3=O (centres undefined)         growth  80.5% (inactive)
 8  C=CCOc1ccc(/C=C2\SC(=S)N(CCc3ccc(O)cc3)C2=O)cc1         growth  86.5% (inactive)
 9  COC(=O)c1nc(-c2ccc(C)cc2)oc1Sc1ccc(C)cc1         growth   101% (inactive)
10  CC(=O)N1N=C(c2ccc(Nc3nc(Nc4ccc(F)cc4)nc(Nc4ccc(Cl)cc4)n3)cc2)CC1c1ccc(N(C)C)cc1 (centres undefined)         growth  47.8% (inactive)
11  CC(C)(C)c1cc(C(C)(C)c2ccccc2)cc(Cc2cc(C(C)(C)c3ccccc3)cc(C(C)(C)C)c2O)c1O         growth  90.2% (inactive)
12                 O=C(Cc1ccc(F)cc1)c1ccccc1         growth   109% (inactive)
13  Cc1c(O)c(O)cc2c3c(oc12)CC(c1ccc2c(c1)OCO2)CC3=O (centres undefined)         growth  89.4% (inactive)
14  C#Cc1cc(C(=O)Nc2ccc(CN3CCN(C)CC3)c(C(F)(F)F)c2)ccc1C         growth  72.3% (inactive)
15               CC(=NCc1ccccc1)c1ccc(O)cc1O         growth   101% (inactive)
16  CC1=C2[C@@H](CC1)[C@]1(C)O[C@@](C3CC3)(C[C@H]1OC(=O)CO)[C@H]2OC(=O)/C=C/c1ccccc1         growth   110% (inactive)
17  [2H]C([2H])([2H])Oc1cccc(/C=C/C(=O)/C=C(/C=C/c2cccc(OC([2H])([2H])[2H])c2OC([2H])([2H])[2H])OB(F)F)c1OC([2H])([2H])[2H]         growth  71.5% (inactive)
18  Clc1nccc2c(-c3csc(-c4c[nH]c5ccc(Br)cc45)n3)c[nH]c12         growth  48.2% (inactive)
19  COc1ccc(NC(=O)Nc2ccccc2CNc2nc(Nc3ccc(OCCN4CCCC4)cc3)ncc2Cl)cc1         growth   -74.3% (active)
